Data credit: paper PMC3630103

# system: CHIKV-RSU1 virus (Asian genotype), envelope glycoproteins E2-E1 (Chikungunya virus (strain RSU1))
assay_endpoint: EC50 of neutralisation of CHIKV-RSU1 (FRNT on Vero cells) (ng/mL)
Supply the numeric figure in ng/mL, leaving out any unit text.

Query: Dear colleague, I am looking for the recorded EC50 of neutralisation of CHIKV-RSU1 (FRNT on Vero cells) of the following binder: CHK-263 (mouse monoclonal antibody) (antibody, V domains shown) VH: QVQLQQSGAELVKPGASVKISCKASGYAFSSYWMNWVKQRPGKGLEWIGQIYPGDGDTNYNGKFKGKATLTADKSSSTAYMQLSSLTSEDSAVYFCARGGLTIDYWGQGTTLTVSS VL: DIVLTQSPATLSVTPGDSVSLSCRASQSISDNLHWYQQKSHESPGLLIKYASQSISGIPSRFSGSGSGTDFTLSINSVETEDFGMYFCQQSNSWPYTFGGGTKLEIK
Result: 4

Query: Consider the binder shown here: CHK-166 (mouse monoclonal antibody) (antibody, V domains shown) VH: EVRLVESGGGLEQPGGSLKLSCAASGFTFSDYFMYWVRQTPEKRLEWVAYISNGGISTFYSDAVKGRFTISRDNARNTLYLQMSRLKSEDTAIYYCVRQVYGQGYFDYWGQGTTLAVSS VL: QIVLIQSPAIMSASLGERVTMTCTASSSVSSSYLHWYQQKPGSSPKLWIYSSFSLASGVPARFSGSGSGTSYSLTISTMEAEDAATYYCHQYLRSPWTFGGGSKLEIK What is its recorded EC50 of neutralisation of CHIKV-RSU1 (FRNT on Vero cells)?
Result: 40

Query: Which EC50 of neutralisation of CHIKV-RSU1 (FRNT on Vero cells) reading was recorded for the binder CHK-152 (mouse monoclonal antibody) (antibody, V domains shown) VH: QVQLQQPGAALVKPGASAMMSCKASGYTFTSYWITWVKQRPGQGLEWIGDIYPGTGRTIYKEKFKTKATLTVDTSSSTAFMQLNSLTSEDSAVYYCARGYGSPYYALDYWGQGTSVTVSS VL: DIVLTQSPASLAVSQGQRATISCKASQSVDYDGDSYVNWYQQKPGQSPKLLIYDASNLESGIPARFSGSGSGTDFTLNIHPVEEEDVATYYCQESNEDPRTFGGGTKLEIK ?
Result: 3

Query: Item CHK-102 (mouse monoclonal antibody) (antibody, V domains shown) VH: QVQLQQSGAELVKPGASVKISCKTSGYAFSSFWMHWVKQRPGKGLEWIGQIYPGDGDTNYNGKFKDKATLTADKSSNTAYMQLTSLTSEDSAVYFCARNLLFDYWGQGTTLTVSS VL: EILMTQSPAILSVSPGERVSFSCRASQSIGSNIHWYQQRTNGSPRLLIKYASESISGIPSRFSGSGSGTDFTLSINSVESEDIADYYCQQNNIWPFTFGSGTKLEIK has what recorded EC50 of neutralisation of CHIKV-RSU1 (FRNT on Vero cells)?
Result: 5
